Counter-ions that a name gives are not always drawn.
Quick list: melting point per entry.

{"molecule": "Fc1cc(N2CCN([C@H]3CC[C@H](c4csc5ccc(F)cc54)CC3)CC2)c2ncccc2c1", "melting point": "143 to 144 °C"}
{"molecule": "Fc1ccc2scc([C@H]3CC[C@H](N4CCN(c5ccc(Cl)c6cccnc56)CC4)CC3)c2c1", "melting point": "195 to 197 °C"}
{"molecule": "Fc1ccc(N2CCN([C@H]3CC[C@H](c4coc5ccccc54)CC3)CC2)c2ncccc12", "melting point": "162 to 164 °C"}
{"molecule": "COc1cc(N2CCN(CCc3coc4c(OC)cccc34)CC2)c2ncccc2c1 (as salt: HCl)", "melting point": "86 °C"}
{"molecule": "COc1cccc2c1occ2[C@H]1CC[C@H](N2CCN(c3cc(F)cc4cccnc34)CC2)CC1", "melting point": "195 to 197 °C"}
{"molecule": "COc1cc(N2CCN([C@H]3CC[C@@H](c4cc5ccccc5s4)CC3)CC2)c2ncccc2c1", "melting point": "184 to 186 °C"}
{"molecule": "Fc1cc(N2CCN(C3CCC(c4cc5ccccc5o4)CC3)CC2)c2ncccc2c1 (stereo not shown)", "melting point": "91 to 93 °C"}
{"molecule": "COc1cc(N2CCN([C@H]3CC[C@@H](c4csc5ccccc54)CC3)CC2)c2ncccc2c1", "melting point": "148 to 150 °C"}
{"molecule": "COc1ccc2occ(CCN3CCN(c4cccc5cccnc45)CC3)c2c1", "melting point": "78 °C"}
{"molecule": "COc1cccc2c1occ2[C@H]1CC[C@@H](N2CCN(c3cc(F)cc4cccnc34)CC2)CC1", "melting point": "75 to 83 °C"}
{"molecule": "Fc1cc(N2CCN([C@H]3CC[C@H](c4coc5ccccc54)CC3)CC2)c2ncccc2c1", "melting point": "195 to 197 °C"}
{"molecule": "Clc1cc(N2CCN([C@H]3CC[C@@H](c4csc5ccccc54)CC3)CC2)c2ncccc2c1", "melting point": "164 to 165 °C"}
{"molecule": "COc1cccc2c1occ2[C@H]1CC[C@@H](N2CCN(c3ccc(F)c4cccnc34)CC2)CC1", "melting point": "143 to 146 °C"}
{"molecule": "COc1cccc2c(C(C)CN3CCN(c4cc(Cl)cc5cccnc45)CC3)coc12 (stereo not shown) (as salt: HCl)", "melting point": "55 to 58 °C"}
{"molecule": "COc1ccc2occ([C@H]3CC[C@H](N4CCN(c5cc(F)cc6cccnc56)CC4)CC3)c2c1", "melting point": "152 to 155 °C"}
{"molecule": "Fc1cc(N2CCN(CCc3coc4ccc(F)cc34)CC2)c2ncccc2c1 (as salt: HCl)", "melting point": "55 °C"}

Recorded values, source patent US20090054454A1.
